Test system: mouse (MC3T3-E1) and human (TE-85) osteoblast-line cells
Format: cell-based
Conditions: 10^-10
Source text: Compounds of the present invention have utility to treat osteoporosis through enhancement of bone calcification rather than traditional approaches which generally involve inhibition of bone degeneration or resorption. The compounds of the present invention have been evaluated as stimulators of proliferation of osteoblast cell and chick calivaria bone organ culture which is predictive of enhancement of bone mass and bone formation in vivo. […]
Outcome measure: Osteoblast Cell Proliferation, 3H-thymidine incorporation vs control (100%)
Report only the number, with the unit % understood.

Entry `COc1ccc(C(=O)N2CCCC(c3ccc(OC)cc3)=N2)cc1` has what Osteoblast Cell Proliferation, 3H-thymidine incorporation vs control (100%)?
115

Another molecule: CCOP(=O)(c1ccccc1)N1CCCC(c2ccc(F)cc2)=N1 (stereo not drawn)
106

Ok, now COC12CCCCC1CC(c1ccccc1)=NN2S(=O)(=O)c1ccc(C)cc1 (stereo not drawn)
105

// same read-out, input: `O=[N+]([O-])c1ccc(S(=O)(=O)N2CCCC(c3ccc(F)cc3)=N2)cc1`
139

`O=C(c1ccc(F)c(Br)c1)N1CCCC(c2ccccc2)=N1` ?
114

Also need `O=S(=O)(c1ccc2ccccc2c1)N1CCCC(c2cccc(Cl)c2)=N1` , thanks.
130

Same question, `O=S(=O)(c1cc(Cl)ccc1Cl)N1CCCC(c2ccc3c(c2)CCCC3)=N1` this time
98

Next: `O=S(=O)(c1ccc(Cl)cc1)N1CCCC(c2ccc3c(c2)CCCC3)=N1`
62

Queued: `CCCCc1ccc(C2=NN(C(=O)c3ccc(Cl)c(Cl)c3)CCC2)cc1`
133
